experiment-description: antimalarial activity against Dd2 strain (AID 2302);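 note: 0% = DMSO untreated growth and 100% = chloroquine plus artemisinin killed control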
condition: P. falciparum Dd2 in RBCs, LDH growth readout, 72 h; at 2 µM; hits give high values
Measured growth inhibition of individual entries
Numeric answer only, unit % assumed.

Below are worked cases with known answers.
> print(dat)
                                   compound  unit.info  observed
1  Cc1cc2c(cc1C(F)(F)F)N(C(=O)Nc1cc(OCCN(C(C)C)C(C)C)cc(C(F)(F)F)c1)CC2          %        86
2  CC(CN(C)C)C(=O)Nc1cccc(-c2ccc(-c3nc4ccc(F)cc4[nH]3)s2)c1 (centres undefined)          %        99
3  CC(C)CN1CCCN(Cc2cccc(NC(=O)c3ccc(-c4ccccc4)cc3)c2)CC1          %        24
4  CN1CCC(C(=O)Nc2cccc(-c3ccc(-c4nc5ccc(F)cc5[nH]4)cc3)c2)CC1          %        51
5  Cc1cc(N2CCN(C)CC2)nc2ccc(NC(=O)c3cccc(N(C)C)c3)cc12          %        23

Query: So what does the record say about growth inhibition for CCCCCN1CCC(NS(=O)(=O)c2cccc(C(=O)Nc3cccc(C(F)(F)F)c3)c2)C1 (centres undefined) ?
Reply: 17

Query: So what does the record say about growth inhibition for CCOc1ccc(-c2nc(NC(=O)COc3ccc(OC)cc3)sc2C)cc1 ?
Reply: 87

Query: So what does the record say about growth inhibition for COCCNCc1cccc(C#Cc2cc3ncnc(Nc4ccc(OCc5cccc(F)c5)c(Cl)c4)c3s2)n1 ?
Reply: 52

Query: So what does the record say about growth inhibition for COc1c(C2CCN(CCCCNC(=O)c3ccc(-c4ccc(Cl)cc4)c(OCCN(C)C)c3)CC2)ccc2c1CCCC2 ?
Reply: 86
